Protocol Summary: physchem
Assay Setup: water
Structures can show the parent of a compound that is named as a salt.
Readout: solubility (mg/mL)
Give bare numbers, in mg/mL.

Asked: Query: solubility; subject: CC(NC(C)(C)C)C(=O)c1cccc(Cl)c1 (stereo not shown) [Bupropion HBr, bupropion hydrobromide]
Given back: 143

* * *

Protocol Summary: Moisture content and pH of aqueous solutions of bupropion salts
Type: physicochemical
Assay Setup: Original (Initial APIs)
Readout: pH (aq. 0.5%)
One number for each entry.

CC(NC(C)(C)C)C(=O)c1cccc(Cl)c1.CC(NC(C)(C)C)C(=O)c1cccc(Cl)c1.O=C(O)C(O)C(O)C(=O)O (centres unmarked) [Bup-Tartrate neutral] | 3.62
CC(NC(C)(C)C)C(=O)c1cccc(Cl)c1.Cc1ccc(S(=O)(=O)O)cc1 (centres unmarked) [Bup-Tosylate] | 5.56
CC(NC(C)(C)C)C(=O)c1cccc(Cl)c1.O=C(O)CC(O)(CC(=O)O)C(=O)O (centres unmarked) [Bup-Citrate (I)] | 3.89
CC(NC(C)(C)C)C(=O)c1cccc(Cl)c1.Cl (centres unmarked) [Bup-HCl] | 5.90

Turning now to a further record.
Asked: Query: pH (aq. 0.5%); subject: CC(NC(C)(C)C)C(=O)c1cccc(Cl)c1.O=C(O)/C=C\C(=O)O (centres unmarked) [Bup-Maleate]
Given back: 4.29

* * *

I'd be grateful if you could share measured moisture content KF for these entries.
Protocol Summary: Moisture content and pH of aqueous solutions of bupropion salts
Assay type: physicochemical
Assay Setup: Original (Initial APIs)
Numbers only, in %.

Below, 3 compounds whose answers are already recorded.
CC(NC(C)(C)C)C(=O)c1cccc(Cl)c1.Cl (stereo not drawn) [Bup-HCl] | 0.0
CC(NC(C)(C)C)C(=O)c1cccc(Cl)c1.CC(NC(C)(C)C)C(=O)c1cccc(Cl)c1.O=C(O)C(O)C(O)C(=O)O (stereo not drawn) [Bup-Tartrate neutral] | 0.14
CC(NC(C)(C)C)C(=O)c1cccc(Cl)c1.O=C(O)CC(O)(CC(=O)O)C(=O)O (stereo not drawn) [Bup-Citrate (I)] | 0.23

List reported moisture content KF for each of these compounds:
1. CC(NC(C)(C)C)C(=O)c1cccc(Cl)c1.O=C(O)/C=C\C(=O)O (stereo not drawn) [Bup-Maleate]
2. Br.CC(NC(C)(C)C)C(=O)c1cccc(Cl)c1 (stereo not drawn)

Given back:
0.10
0.00

* * *

Protocol Summary: physchem
Assay Setup: organic solvent or mixture, EtOH
Where a name gives a salt, the structure may show the parent alone.
Readout: solubility (mg/mL)
Answers are plain numbers, in mg/mL.

Asked: Query: solubility; subject: CC(NC(C)(C)C)C(=O)c1cccc(Cl)c1 (stereo not shown) [Bupropion HBr, bupropion hydrobromide]
Given back: 92
